assay: Cmax in mouse at 20 mg/kg, po; assay type: ADME, organism-based; parameters: dose 20 mg/kg, route po; settings: in vivo

molecule: CC1Sc2c(C(=O)O)c(=O)c3cc(F)c(N4CCN(C)CC4)cc3n21 (centres undefined)
Cmax [ng/mL]: 940

molecule: CN1CCN(c2cc3c(cc2F)c(=O)c(C(=O)O)c2n3C(CF)S2)CC1 (centres undefined)
Cmax [ng/mL]: 4400

molecule: COc1c(N2CCN(C)CC2)c(F)cc2c(=O)c(C(=O)O)c3n(c12)C(C)S3 (centres undefined)
Cmax [ng/mL]: 840

molecule: COc1c(N2CCN(C)CC2)c(F)cc2c(=O)c(C(=O)O)c3n(c12)C(CF)S3 (centres undefined)
Cmax [ng/mL]: 3200
